assay: Sensory evaluation of aqueous solution IV containing 1,5-octadien-3-one 100 ppt: off-flavor intensity and masking component intensity; conditions: aqueous solution IV; 10 ppb added; average panel score
Endpoint Label: Masking Component Intensity
Please give the numeric answer without any surrounding text.

So what does the record say about Masking Component Intensity for CC(=O)/C(C)=C/C1C(C)=CCCC1(C)C (stereo not drawn) [γ-methyl ionone] ? 2.3

So what does the record say about Masking Component Intensity for CC(C)C=C(C=O)c1ccccc1 [4-methyl-2-phenyl-2-pentenal] ? 1.0

So what does the record say about Masking Component Intensity for CC(O)CC(=O)OC1CC(C)CCC1C(C)C (stereo not drawn) [menthyl 3-hydroxybutyrate] ? 0.6

So what does the record say about Masking Component Intensity for CC1CCC(C(C)C)C(OCC(O)CO)C1 (stereo not drawn) [3-menthoxypropan-1,2-diol] ? 0.1

So what does the record say about Masking Component Intensity for C=CC(C)(O)CCC=C(C)CCC=C(C)C (stereo not drawn) [nerolidol] ? 0.6

So what does the record say about Masking Component Intensity for CC1CCC(C(C)C)C(OCCO)C1 (stereo not drawn) [2-menthoxyethanol] ? 1.0
